- Target Or Test System: human serum albumin (human) (UniProt P02768)
- Sequence (P02768 25-609 limits assumed): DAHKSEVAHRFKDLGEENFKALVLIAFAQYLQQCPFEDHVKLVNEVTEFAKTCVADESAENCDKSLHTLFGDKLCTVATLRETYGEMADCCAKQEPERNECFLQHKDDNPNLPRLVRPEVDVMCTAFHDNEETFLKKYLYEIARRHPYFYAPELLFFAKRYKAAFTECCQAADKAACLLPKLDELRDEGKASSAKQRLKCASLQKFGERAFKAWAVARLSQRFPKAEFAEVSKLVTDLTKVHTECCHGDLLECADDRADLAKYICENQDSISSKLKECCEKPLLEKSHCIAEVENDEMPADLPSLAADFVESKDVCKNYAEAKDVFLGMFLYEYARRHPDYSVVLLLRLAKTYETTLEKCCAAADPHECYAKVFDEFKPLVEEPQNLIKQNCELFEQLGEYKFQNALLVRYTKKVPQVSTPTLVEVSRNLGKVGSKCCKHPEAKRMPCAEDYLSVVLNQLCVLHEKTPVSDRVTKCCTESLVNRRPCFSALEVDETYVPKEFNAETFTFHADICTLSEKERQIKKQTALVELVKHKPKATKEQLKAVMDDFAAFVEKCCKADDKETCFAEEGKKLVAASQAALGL
- Assay Notes: screening ELISA
Measure Name: HSA

SEQ ID NO 193 (designed binder) MLPAPKNLVVSRVTEDSARLSWTAPDAAFDSFTIWYAEAVGNGEAIVLTVPGSERSYDLTGLKPGTEYWVDIWGVKGGEFSSPLSAIFTT    2500
SEQ ID NO 285 (designed binder) MLPAPKNLVVSRVTEDSARLSWTAPDAAFDSFLIPYAETSPSGEAIVLTVPGSERSYDLTGLKPGTEYSVLIHGVKGGDYSSPLSAIFTT    2200
SEQ ID NO 144 (designed binder) MLPAPKNLVVSRVTEDSARLSWTAPDAAFDSFIIPYAEVRPDGEAIVLTVPGSERSYDLTGLKPGTEYSVLIHGVKGGKLSLPLSAIFTT    2750
SEQ ID NO 171 (designed binder) MLPAPKNLVVSRVTEDSARLSWTAPDAAFDSFAIRYLEWWDVGEAIVLTVPGSERSYDLTGLKPGTEYLVEIKGVKGGKFSYPLSAIFTT    1900

[a] SEQ ID NO 183 (designed binder) MLPAPKNLVVSRVTEDSARLSWTAPDAAFDSFLIPYAETSPSGEAIVLTVPGSERSYDLTGLKPGTEYSVLIHGVKGGRPSNPLVAAFTT
[b] SEQ ID NO 40 (designed binder) MLPAPKNLVVSRVTEDSARLSWTAPDAAFDSFVIEYWEYVGHGEAIVLTVPGSERSYDLTGLKPGTEYSVGIYGVKGGSLSRPLSAIFTT
[c] SEQ ID NO 52 (designed binder) MLPAPKNLVVSRVTEDSARLSWTAPDAAFDSFKISYQEWWEDGEAIVLTVPGSERSYDLTGLKPGTEYWVNISGVKGGVQSYPLSAIFTT
[d] SEQ ID NO 147 (designed binder) MLPAPKNLVVSRVTEDSARLSWTAPDAAFDSFFIGYLEPQPPGEAIVLTVPGSERSYDLTGLKPGTEYSVLIHGVKGGRNSDPLSAISTT
[e] SEQ ID NO 82 (designed binder) MLPAPKNLVVSRVTEDSARLSWTAPDAAFDSFAIAYVEWWKLGEAIVLTVPGSERSYDLTGLKPGTEYVVPIPGVKGGGHSSPLSAIFTT
Input: Thanks in advance: please rank these 5 entries by HSA, highest to lowest. Your task in answering is to list the labels in the requested order.
Output: d, e, a, b, c
(d: 71200, e: 18900, a: 10700, b: 2960, c: 1760)
